# Tested on: K. pneumoniae NVT1001 strains with QnrB, QnrS or AAC(6′)-Ib-cr plasmids
# method.description: Etest MIC of quinolones, GyrA/ParC mutations, ΔramR and/or QnrB, QnrS or AAC(6′)-Ib-cr (Table 12)
# Assay type: cell-based
# condition.parameters: Klebsiella pneumoniae, AAC(6′)-Ib-cr on pACYC177; S83I/S80I mutant
assay.metric: MIC (µg/mL)
Return type: number; implicit unit µg/mL.

Lookup: # lookup: MIC of `COc1c(N2C[C@@H]3CCCN[C@@H]3C2)c(F)cc2c(=O)c(C(=O)O)cn(C3CC3)c12`
Found: 8

Lookup: Moving on to `CCn1cc(C(=O)O)c(=O)c2cc(F)c(N3CCNCC3)cc21`
Found: 128

Lookup: Moving on to `C[C@H]1COc2c(N3CCN(C)CC3)c(F)cc3c(=O)c(C(=O)O)cn1c23`
Found: 2

Lookup: Moving on to CC1COc2c(N3CCN(C)CC3)c(F)cc3c(=O)c(C(=O)O)cn1c23 (centres unmarked)
Found: 8

----------
# Tested on: K. pneumoniae NVT1001 strains with carbapenemase plasmids
# method.description: Etest MIC of β-lactams, OmpK35/36 loss, ΔramR and/or carbapenemase (Table 9)
# Assay type: cell-based, Klebsiella pneumoniae
# condition.parameters: Klebsiella pneumoniae, no supplemental plasmid; ΔramR mutant
What MIC was measured for each of the following?

Lookup: # lookup: MIC of `CC(=O)OCC1=C(C(=O)O)N2C(=O)[C@@H](NC(=O)Cc3cccs3)[C@H]2SC1`
Found: 64 µg/mL

Lookup: Moving on to `CO[C@@]1(NC(=O)Cc2cccs2)C(=O)N2C(C(=O)O)=C(COC(N)=O)CS[C@@H]21`
Found: 64 µg/mL

Lookup: Moving on to CO/N=C(\C(=O)N[C@@H]1C(=O)N2C(C(=O)[O-])=C(C[N+]3(C)CCCC3)CS[C@H]12)c1csc(N)n1 [Cefepime]
Found: 0.5 µg/mL

Lookup: Moving on to `CCO/N=C(\C(=O)N[C@@H]1C(=O)N2C(C(=O)[O-])=C(Sc3nc(-c4cc[n+](C)cc4)cs3)CS[C@H]12)c1nsc(N)n1`
Found: 1 µg/mL

Lookup: Moving on to `C[C@@H](O)[C@H]1C(=O)N2C(C(=O)O)=C(SCCN=CN)C[C@H]12`
Found: 0.25 µg/mL

Lookup: Moving on to `C[C@@H](O)[C@H]1C(=O)N2C(C(=O)O)=C(S[C@@H]3CN[C@H](CNS(N)(=O)=O)C3)[C@H](C)[C@H]12`
Found: 0.03 µg/mL

Lookup: Moving on to `CC(C)(O/N=C(\C(=O)N[C@@H]1C(=O)N2C(C(=O)[O-])=C(C[n+]3ccccc3)CS[C@H]12)c1csc(N)n1)C(=O)O`
Found: 2 µg/mL

Lookup: Moving on to `C[C@@H](O)[C@H]1C(=O)N2C(C(=O)O)=C(S[C@@H]3CN[C@H](C(=O)N(C)C)C3)[C@H](C)[C@H]12`
Found: 0.06 µg/mL

Lookup: Moving on to `C[C@@H](O)[C@H]1C(=O)N2C(C(=O)O)=C(S[C@@H]3CN[C@H](C(=O)Nc4cccc(C(=O)O)c4)C3)[C@H](C)[C@H]12`
Found: 0.125 µg/mL

Lookup: Moving on to `C[C@H]1[C@H](NC(=O)/C(=N\OC(C)(C)C(=O)O)c2csc(N)n2)C(=O)N1S(=O)(=O)O`
Found: 0.5 µg/mL

Lookup: Moving on to `CO/N=C(\C(=O)N[C@@H]1C(=O)N2C(C(=O)O)=C(COC(C)=O)CS[C@H]12)c1csc(N)n1`
Found: 1 µg/mL

Lookup: Moving on to `CO/N=C(\C(=O)N[C@@H]1C(=O)N2C(C(=O)O)=C(COC(N)=O)CS[C@H]12)c1ccco1`
Found: 32 µg/mL

----------
# System: K. pneumoniae NVT1001 and its GyrA/ParC and ΔramR mutants
# method.description: Etest MIC of quinolones, GyrA/ParC mutations and AcrAB-TolC overexpression (ΔramR) (Table 10)
# Type: cell-based
# condition.parameters: Klebsiella pneumoniae, S83I/D87N mutant
assay.metric: MIC (mg/L)
Return type: number; implicit unit mg/L.

Lookup: What value of MIC on K. pneumoniae NVT1001 and its GyrA/ParC and ΔramR mutants does `COc1c(N2C[C@@H]3CCCN[C@@H]3C2)c(F)cc2c(=O)c(C(=O)O)cn(C3CC3)c12` have?
Found: 1

Lookup: Moving on to `C[C@H]1COc2c(N3CCN(C)CC3)c(F)cc3c(=O)c(C(=O)O)cn1c23`
Found: 1

Lookup: Moving on to CC1COc2c(N3CCN(C)CC3)c(F)cc3c(=O)c(C(=O)O)cn1c23 (centres unmarked)
Found: 2

Lookup: Moving on to `CCn1cc(C(=O)O)c(=O)c2cc(F)c(N3CCNCC3)cc21`
Found: 2

----------
# System: K. pneumoniae NVT1001 strains with ESBL or AmpC β-lactamase plasmids
# method.description: Etest MIC of β-lactams, OmpK35/36 loss, ΔramR and/or extended-spectrum β-lactamase and AmpC β-lactamase (Table 8)
# Assay type: cell-based, Klebsiella pneumoniae
# condition.parameters: Klebsiella pneumoniae, DHA-1-AmpR on pACYC177; ΔramRΔ35/36 (ΔramRΔompK35/36 mutant)
assay.metric: MIC (µg/mL)
Return type: number; implicit unit µg/mL.

Lookup: # lookup: MIC of `CC(C)(O/N=C(\C(=O)N[C@@H]1C(=O)N2C(C(=O)[O-])=C(C[n+]3ccccc3)CS[C@H]12)c1csc(N)n1)C(=O)O`
Found: 128

Lookup: Moving on to `C[C@@H](O)[C@H]1C(=O)N2C(C(=O)O)=C(S[C@@H]3CN[C@H](C(=O)N(C)C)C3)[C@H](C)[C@H]12`
Found: 4

Lookup: Moving on to `CO/N=C(\C(=O)N[C@@H]1C(=O)N2C(C(=O)O)=C(COC(C)=O)CS[C@H]12)c1csc(N)n1`
Found: 64

Lookup: Moving on to `C[C@@H](O)[C@H]1C(=O)N2C(C(=O)O)=C(SCCN=CN)C[C@H]12`
Found: 16

Lookup: Moving on to `C[C@@H](O)[C@H]1C(=O)N2C(C(=O)O)=C(S[C@@H]3CN[C@H](CNS(N)(=O)=O)C3)[C@H](C)[C@H]12`
Found: 4

----------
# System: A. baumannii KW1 strains with tet resistance gene plasmids
# method.description: Etest MIC of tetracyclines, tet resistance gene (Table 20)
# Format: cell-based, Acinetobacter baumannii
# condition.parameters: Acinetobacter baumannii, KW1 with shuttle vector pYMAb5
assay.metric: MIC
Could you kindly put the unit after your number?

Lookup: What value of MIC on A. baumannii KW1 strains with tet resistance gene plasmids does `C[C@H]1c2cccc(O)c2C(=O)C2=C(O)[C@]3(O)C(=O)C(C(N)=O)=C(O)[C@@H](N(C)C)[C@@H]3[C@@H](O)[C@@H]21` have?
Found: 0.75 µg/mL

Lookup: Moving on to `CN(C)[C@@H]1C(O)=C(C(N)=O)C(=O)[C@@]2(O)C(O)=C3C(=O)c4c(O)cccc4[C@@](C)(O)[C@H]3C[C@@H]12`
Found: 3 µg/mL

Lookup: Moving on to `CN(C)c1ccc(O)c2c1C[C@H]1C[C@H]3[C@H](N(C)C)C(O)=C(C(N)=O)C(=O)[C@@]3(O)C(O)=C1C2=O`
Found: 0.25 µg/mL

Lookup: Moving on to `CN(C)c1cc(NC(=O)CNC(C)(C)C)c(O)c2c1C[C@H]1C[C@H]3[C@H](N(C)C)C(O)=C(C(N)=O)C(=O)[C@@]3(O)C(O)=C1C2=O`
Found: 0.38 µg/mL

----------
# Test system: K. pneumoniae NVT1001 strains with ESBL or AmpC β-lactamase plasmids
# method.description: Etest MIC of β-lactams, OmpK35/36 loss, ΔramR and/or extended-spectrum β-lactamase and AmpC β-lactamase (Table 8)
# Format: cell-based, Klebsiella pneumoniae
# condition.parameters: Klebsiella pneumoniae, CTX-M-14 on pACYC177; ΔramRΔ36 (ΔramRΔompK36 mutant)
What MIC was measured for each of the following?

Lookup: # lookup: MIC of `CC(=O)OCC1=C(C(=O)O)N2C(=O)[C@@H](NC(=O)Cc3cccs3)[C@H]2SC1`
Found: > 256 µg/mL

Lookup: Moving on to `C[C@@H](O)[C@H]1C(=O)N2C(C(=O)O)=C(SCCN=CN)C[C@H]12`
Found: 0.5 µg/mL

Lookup: Moving on to `C[C@@H](O)[C@H]1C(=O)N2C(C(=O)O)=C(S[C@@H]3CN[C@H](C(=O)Nc4cccc(C(=O)O)c4)C3)[C@H](C)[C@H]12`
Found: 16 µg/mL

Lookup: Moving on to `C[C@@H](O)[C@H]1C(=O)N2C(C(=O)O)=C(S[C@@H]3CN[C@H](CNS(N)(=O)=O)C3)[C@H](C)[C@H]12`
Found: 0.5 µg/mL
